Tested On: Son of sevenless homolog 1/GTPase KRas [G12C] (Homo sapiens, UniProt P01116, G12C)
Sequence (P01116 whole entry G12C): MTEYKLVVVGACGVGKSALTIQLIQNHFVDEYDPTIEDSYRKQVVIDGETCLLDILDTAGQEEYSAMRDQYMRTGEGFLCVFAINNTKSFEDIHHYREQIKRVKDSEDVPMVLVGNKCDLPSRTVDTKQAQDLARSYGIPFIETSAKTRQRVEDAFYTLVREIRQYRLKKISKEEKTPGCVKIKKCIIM
Sequence (Q07889 whole entry, further chain): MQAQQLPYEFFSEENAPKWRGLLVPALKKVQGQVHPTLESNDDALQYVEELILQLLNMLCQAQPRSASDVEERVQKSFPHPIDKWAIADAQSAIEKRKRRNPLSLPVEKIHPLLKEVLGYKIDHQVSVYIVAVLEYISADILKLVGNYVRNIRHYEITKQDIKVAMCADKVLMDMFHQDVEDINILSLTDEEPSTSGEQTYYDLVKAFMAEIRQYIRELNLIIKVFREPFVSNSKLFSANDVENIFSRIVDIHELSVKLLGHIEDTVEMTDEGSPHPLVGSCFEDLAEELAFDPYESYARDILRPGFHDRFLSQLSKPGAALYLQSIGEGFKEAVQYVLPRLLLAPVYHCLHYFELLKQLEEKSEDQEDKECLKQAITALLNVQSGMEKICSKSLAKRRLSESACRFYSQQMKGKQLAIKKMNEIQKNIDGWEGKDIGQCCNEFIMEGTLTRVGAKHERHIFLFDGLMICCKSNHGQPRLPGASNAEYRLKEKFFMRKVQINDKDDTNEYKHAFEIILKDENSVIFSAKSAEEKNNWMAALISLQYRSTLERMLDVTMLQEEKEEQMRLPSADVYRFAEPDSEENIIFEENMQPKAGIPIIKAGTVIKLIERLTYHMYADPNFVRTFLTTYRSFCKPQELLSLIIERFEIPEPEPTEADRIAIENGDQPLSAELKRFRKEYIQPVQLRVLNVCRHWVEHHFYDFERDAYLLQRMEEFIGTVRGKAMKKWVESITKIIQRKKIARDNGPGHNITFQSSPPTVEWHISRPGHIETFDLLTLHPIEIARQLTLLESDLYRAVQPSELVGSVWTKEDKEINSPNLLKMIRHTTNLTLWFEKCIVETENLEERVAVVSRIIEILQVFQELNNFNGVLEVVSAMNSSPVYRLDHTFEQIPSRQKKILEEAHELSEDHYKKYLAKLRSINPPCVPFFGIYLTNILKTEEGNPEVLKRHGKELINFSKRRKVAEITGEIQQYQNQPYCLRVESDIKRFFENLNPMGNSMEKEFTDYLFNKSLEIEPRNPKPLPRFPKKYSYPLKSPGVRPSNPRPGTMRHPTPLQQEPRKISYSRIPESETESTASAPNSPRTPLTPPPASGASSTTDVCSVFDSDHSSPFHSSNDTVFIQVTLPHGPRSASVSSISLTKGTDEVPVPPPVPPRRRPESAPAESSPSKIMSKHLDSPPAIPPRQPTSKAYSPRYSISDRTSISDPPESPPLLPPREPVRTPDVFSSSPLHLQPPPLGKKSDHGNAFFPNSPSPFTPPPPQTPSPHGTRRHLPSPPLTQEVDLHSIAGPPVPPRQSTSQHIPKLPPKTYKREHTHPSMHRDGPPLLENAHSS
Method: HTRF KRASG12C/SOS1 Binding Assay
Measured pIC50 accompanies every entry in the list below.
Schema: pIC50 number; meaning minus log10 of the concentration expressed in molar units.

In the examples that follow, each entry is paired with its recorded pIC50.
> print(dat)
                                test.smiles  numeric.value
1  COc1ncc(-c2ccc3ncnc(N4CCN(C(=O)/C=C/C(C)=O)C[C@@H]4C)c3c2)cc1NS(=O)(=O)c1ccc(F)cc1F           6.65
2  COc1ncc(-c2ccc3ncnc(N4CCN(C(=O)/C=C/C(C)=O)CC4)c3c2)cc1SS(=O)(=O)c1ccc(F)cc1F           6.80

Name the recorded pIC50 of the item `COc1ncc(-c2ccc3ncnc(N4CCC5(CN(C(=O)/C=C/C(C)=O)C5)C4)c3c2)cc1NS(=O)(=O)c1ccc(F)cc1F` in your answer. 7.01

Return the recorded pIC50 value; entry: `COc1ncc(-c2ccc3ncnc(N4CCN(C(=O)/C=C/C(C)=O)CC4)c3n2)cc1NS(=O)(=O)c1cnccc1C` 6.68

* * *

Tested On: Phosphatidylinositol 4,5-bisphosphate 3-kinase catalytic subunit alpha isoform (Homo sapiens)
Sequence (P42336 whole entry, canonical isoform): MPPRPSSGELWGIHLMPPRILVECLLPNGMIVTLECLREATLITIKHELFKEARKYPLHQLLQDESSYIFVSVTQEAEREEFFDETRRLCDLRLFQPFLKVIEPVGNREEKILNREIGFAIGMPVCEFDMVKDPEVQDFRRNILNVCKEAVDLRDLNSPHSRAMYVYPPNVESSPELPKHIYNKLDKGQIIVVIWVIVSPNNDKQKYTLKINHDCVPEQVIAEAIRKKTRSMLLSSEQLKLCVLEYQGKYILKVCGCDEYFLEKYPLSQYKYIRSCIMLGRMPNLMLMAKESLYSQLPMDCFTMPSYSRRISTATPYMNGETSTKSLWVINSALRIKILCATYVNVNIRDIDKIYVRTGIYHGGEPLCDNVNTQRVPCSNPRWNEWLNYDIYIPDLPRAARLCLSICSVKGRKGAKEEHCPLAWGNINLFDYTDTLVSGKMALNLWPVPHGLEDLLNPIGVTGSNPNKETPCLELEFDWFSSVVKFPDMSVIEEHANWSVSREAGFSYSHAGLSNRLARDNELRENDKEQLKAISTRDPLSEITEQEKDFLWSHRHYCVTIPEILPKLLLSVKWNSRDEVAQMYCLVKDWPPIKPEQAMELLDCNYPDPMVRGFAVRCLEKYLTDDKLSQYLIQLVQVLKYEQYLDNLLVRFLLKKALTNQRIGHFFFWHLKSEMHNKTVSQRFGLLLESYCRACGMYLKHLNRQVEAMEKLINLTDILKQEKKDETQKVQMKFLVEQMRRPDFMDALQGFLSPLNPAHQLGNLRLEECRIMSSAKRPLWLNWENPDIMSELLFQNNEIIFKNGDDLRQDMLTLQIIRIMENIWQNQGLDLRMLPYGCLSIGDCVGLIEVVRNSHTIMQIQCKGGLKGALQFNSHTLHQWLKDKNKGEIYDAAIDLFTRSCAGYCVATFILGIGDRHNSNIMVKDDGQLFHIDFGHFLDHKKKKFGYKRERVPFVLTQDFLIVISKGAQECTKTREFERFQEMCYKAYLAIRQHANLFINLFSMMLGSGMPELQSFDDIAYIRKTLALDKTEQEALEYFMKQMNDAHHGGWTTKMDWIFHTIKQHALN
Method: Inhibition of PI3Kalpha Efficacy assay
# Lookup of reported IC50 keyed by entry
Phrase the answer as number then unit, nothing more needed.

> print(dat)
                                test.smiles   result
1  COc1ncc(-c2ccc3ncnc(N4CCN(C(=O)/C=C/C(C)=O)CC4)c3c2)cc1SS(=O)(=O)c1ccc(F)cc1F  2.24 nM
2  COc1ncc(-c2ccc3ncnc(N4CCN(C(=O)/C=C/C(C)=O)CC4)c3n2)cc1NS(=O)(=O)c1cnccc1C   1.4 nM
3  COc1ncc(-c2ccc3ncnc(N4CCN(C(=O)/C=C/C(C)=O)C[C@@H]4C)c3c2)cc1NS(=O)(=O)c1ccc(F)cc1F  0.34 nM
4  C=CS(=O)(=O)N1CCN(c2ncnc3ccc(-c4cnc(OC)c(NS(=O)(=O)c5ccc(F)cc5F)c4)cc23)CC1   3.2 nM

Kindly consider the entry below.
Recall and state the measured IC50 for `COc1ncc(-c2ccc3ncnc(N4CCC5(CN(C(=O)/C=C/C(C)=O)C5)C4)c3c2)cc1NS(=O)(=O)c1ccc(F)cc1F` . 11.3 nM

* * *

Tested On: Phosphatidylinositol 4,5-bisphosphate 3-kinase catalytic subunit delta isoform (Homo sapiens)
Sequence (O00329 whole entry, canonical isoform): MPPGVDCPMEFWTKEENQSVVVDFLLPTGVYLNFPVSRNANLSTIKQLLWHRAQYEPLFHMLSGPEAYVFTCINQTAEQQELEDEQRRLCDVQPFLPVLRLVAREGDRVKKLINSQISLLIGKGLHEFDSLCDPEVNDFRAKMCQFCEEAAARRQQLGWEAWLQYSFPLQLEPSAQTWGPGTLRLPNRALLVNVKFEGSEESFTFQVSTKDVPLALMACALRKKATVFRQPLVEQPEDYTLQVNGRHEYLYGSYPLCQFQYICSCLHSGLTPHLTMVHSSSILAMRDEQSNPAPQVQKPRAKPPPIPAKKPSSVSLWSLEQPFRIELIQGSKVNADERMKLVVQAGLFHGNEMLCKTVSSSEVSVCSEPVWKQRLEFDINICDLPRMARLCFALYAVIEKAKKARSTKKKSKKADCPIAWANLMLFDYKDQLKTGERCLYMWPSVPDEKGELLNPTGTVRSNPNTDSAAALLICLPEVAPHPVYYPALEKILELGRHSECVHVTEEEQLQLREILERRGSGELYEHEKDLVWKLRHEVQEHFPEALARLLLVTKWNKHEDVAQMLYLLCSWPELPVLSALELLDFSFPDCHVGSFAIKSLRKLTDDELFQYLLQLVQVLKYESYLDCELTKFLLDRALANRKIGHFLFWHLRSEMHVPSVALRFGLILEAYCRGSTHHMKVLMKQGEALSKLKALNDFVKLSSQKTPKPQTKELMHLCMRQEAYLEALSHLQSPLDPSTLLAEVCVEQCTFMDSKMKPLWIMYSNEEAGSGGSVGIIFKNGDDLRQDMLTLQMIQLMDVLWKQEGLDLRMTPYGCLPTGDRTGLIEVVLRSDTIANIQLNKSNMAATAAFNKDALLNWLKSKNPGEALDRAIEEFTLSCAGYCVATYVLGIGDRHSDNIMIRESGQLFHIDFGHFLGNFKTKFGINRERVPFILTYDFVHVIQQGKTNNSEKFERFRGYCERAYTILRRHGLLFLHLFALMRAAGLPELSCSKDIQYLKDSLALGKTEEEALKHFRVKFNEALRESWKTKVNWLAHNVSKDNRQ
Method: Inhibition of PI3Kdelta Efficacy Assay
Recorded Endpoint: IC50 (nM)
API: value field is a number in nM; no unit string.

> print(dat)
                                test.smiles  numeric.value
1  COc1ncc(-c2ccc3ncnc(N4CCN(C(=O)/C=C/C(C)=O)C[C@@H]4C)c3c2)cc1NS(=O)(=O)c1ccc(F)cc1F           17.9
2  COc1ncc(-c2ccc3ncnc(N4CCN(C(=O)/C=C/C(C)=O)CC4)c3c2)cc1SS(=O)(=O)c1ccc(F)cc1F           13.8
3  COc1ncc(-c2ccc3ncnc(N4CCC5(CN(C(=O)/C=C/C(C)=O)C5)C4)c3c2)cc1NS(=O)(=O)c1ccc(F)cc1F           85.3

Next:
Give IC50 for the following compound: `C=C(F)C(=O)N1CCN(c2ncnc3ccc(-c4cnc(OC)c(N(C)S(=O)(=O)c5ccc(F)cc5F)c4)cc23)CC1` 903

The measured values listed here are drawn from BindingDB's records for patent US20250145589.
